Origin of values: PubChem BioAssay (NCI)

System: T-47D breast
ASSAY_NAME: NCI-60 one-dose screen, 48 h
RUN_PARAMETERS: 10 µM unless noted
About 83,000 compounds went through this panel and 20% of them were active in at least one assay; those are over-represented in the sample as a whole. Calls of active or inactive are those of the source. Rule for the calls: active = growth percent below 10; inactive = the rest.
Outcome (select one): class 1 (active), class 0 (inactive)

Query string: Hi, sorry to bother you, what did the test record for CCc1ccc(Oc2c(-c3ccc(OCc4ccc(Cl)cc4)cc3O)n[nH]c2C(F)(F)F)cc1 ?
Result string: class 1

More entries:
Query string: Fill in: this test's call for Nc1nn(C(=O)Nc2ccc(Cc3ccccc3)cc2)c2ccc(Cl)cc12 is ___
Result string: class 0

Query string: Dear colleague, could you share the recorded outcome for COc1cccc(Oc2ccccc2NC(=O)CNC(=O)c2cccc3ccccc23)c1 when you have a moment?
Result string: class 0

Query string: GET /call?item= CCN(CC)CCCNc1nc2ccccc2c2c(=O)c3cc(Cl)ccc3sc12 returns the recorded outcome of this test.
Result string: class 0

Query string: What call does the record list for CCOC(=O)c1cn2ncnc(Oc3ccc(NC(=O)NCCN(C)C)c(Cl)c3)c2c1C ?
Result string: class 0

Query string: Hi, do you know how c1ccc(-c2nc3sc(-c4ccccc4)cn3n2)cc1 came out in this test?
Result string: class 0

====

Tested on: CAKI-1 renal
ASSAY_NAME: NCI-60 one-dose screen, 48 h (100 = growth as untreated, 0 = no growth, -100 = all killed)
RUN_PARAMETERS: 10 µM unless noted
About 83,000 compounds went through this panel and 20% of them were active in at least one assay; those are over-represented in the sample as a whole. Activity calls are given as the source filed them. Rule for the calls: active = growth percent below 10; inactive = the rest.
Reported growth values for the following compounds.

Query string: Answer with the recorded growth for the compound listed here: O=C(CS(=O)c1oc(-c2cccs2)nc1S(=O)(=O)c1ccc(Br)cc1)c1ccccc1 (stereo not drawn)
Result string: 90.9% (inactive)

Query string: Given Cc1ccc(C(=O)N/N=C/c2cccc(Oc3ccccc3)c2)cn1 , respond with its growth.
Result string: 22.9% (inactive)

Query string: Report measured growth; entry is C#C[C@]1(O)CC[C@H]2[C@@H]3CC=C4c5sc(Nc6ccccc6)nc5CC[C@]4(C)[C@H]3CC[C@@]21C
Result string: 21.5% (inactive)

Continue with the next compound.
Query string: Read the entry C=C1CC[C@@]2(C#N)[C@H]3[C@H](CC[C@@H]2C)[C@@H](C)C[C@@H](CC(C)(C)C#N)[C@H]13 and write its reported growth.
Result string: 19% (inactive)

====

Tested on: OVCAR-8 ovarian
ASSAY_NAME: NCI-60 one-dose screen, 48 h
RUN_PARAMETERS: 10 µM unless noted
This is part of a sample that, as a whole, favours compounds with a hit. Of some 83,000 tested, about 20% had one in any assay. Calls of active or inactive are those of the source. How the source made its calls: active means growth percent below 10; inactive means the rest.
Outcome (select one): true (1) (active), false (0) (inactive)

For orientation, consider the following solved cases.
Query string: Could you please tell me the result logged for COc1ccc(N)c(N)c1 in this assay?
Result string: false (0)

Query string: Name the outcome recorded for O=C1CSC(c2c(Cl)cccc2Cl)N1c1nc(Cl)cc(=O)[nH]1 (stereo unspecified) in the assay.
Result string: false (0)

Query string: Please state the recorded outcome for this compound: COc1ccc(C2CC(c3ccc(Nc4ccnc5cc(Cl)ccc45)cc3)=NN2C=O)cc1 (stereo unspecified)
Result string: false (0)

Query string: Which outcome did this test record for the compound Cc1cccc(NCc2cn(-c3ccc(C(=O)O)cc3)nc2-c2ccc(C(=O)O)cc2)n1 ?
Result string: false (0)

Query string: How did this test come out for Fc1cc(-c2nnc3sc(-c4ccc(Cl)cc4Cl)nn23)c(Cl)cc1Cl ?
Result string: false (0)

Continuing:
Query string: // param item: C[N+]1=C(/C=C/c2ccc(O)c3ncccc23)C(C)(C)c2ccccc21 ; yields the recorded call
Result string: false (0)

Query string: Which outcome did this test record for the compound CCCCCCCNC(=O)CCCNc1ncnc2c1ncn2-c1cccc(C(C)O)c1 (stereo unspecified) ?
Result string: false (0)

Query string: So what was the verdict on COc1nc2ccccc2cc1-c1nc2c(cnn2-c2ccc(Br)cc2)c(=O)[nH]1 in this test?
Result string: false (0)

Query string: Which result was noted for this compound in the test: CCCCOc1nc2ccc(OC)cc2cc1-c1cc(-c2ccc(Cl)cc2)nc(-c2ccc(Cl)cc2)c1
Result string: false (0)

Query string: Outcome? CCN1C(=O)N(CC)C2Nn3c(s/c(=C4\C(=O)Nc5ccccc54)c3=O)=NC21 (stereo unspecified)
Result string: false (0)

Query string: Hey, what did the test say about COc1ccc2c(c1OC)C(=O)O[C@H]2[C@H]1c2c(cc3c(c2OC)OCO3)CCN1C ?
Result string: false (0)

Query string: Field: outcome | Entry: CCOC(=O)CCN(C(=O)Nc1ccccc1)C1CCCCC1
Result string: false (0)

====

System: SF-295 CNS
ASSAY_NAME: NCI-60 one-dose screen, 48 h (100 = growth as untreated, 0 = no growth, -100 = all killed)
RUN_PARAMETERS: 10 µM unless noted
The panel holds about 83,000 compounds, 20% with a hit somewhere; the sample as a whole holds those more often.
ASSAY_METRIC: growth (%)
Write the answer as a number in %, unit excluded.

Worked set:
Query string: Name the recorded growth of the molecule listed here: COc1cc2cc(Oc3ccc(NC(=O)Nc4ccc(Cl)c(Cl)c4)cc3)c(C)nc2cc1OCCN1CCOCC1
Result string: 80.1

Query string: Return the recorded growth value; entry: N#Cc1c(-c2ccc(Cl)cc2)nc(NCCO)[nH]c1=O
Result string: 95.3

Query string: Give the reported value of growth for this record: CN1CCN(CC(=O)N2c3cccc4cccc(c34)N(C(=O)CN3CCN(C)CC3)C2c2cn(-c3ccccc3)nc2-c2cccc([N+](=O)[O-])c2)CC1
Result string: -67.1

Next:
Query string: Identify the reported growth for the following entry. COC(=O)/C=C1\S/C(=N\Nc2ccc([N+](=O)[O-])cc2[N+](=O)[O-])N(C2CCCCC2)C1=O
Result string: 77.1

Query string: Could you please provide reported growth for CN1C(=O)CNC(=O)[C@H](NC(=O)c2nc3ccccc3cc2O)CSSC[C@H]1C(=O)NCCc1nc2ccccc2cc1O ? Thanks!
Result string: 68.3

Query string: Let me know recorded growth for NCCOc1ncccc1/C=C1\c2ccccc2-c2ccc(C(F)F)cc21 , thanks.
Result string: 53.7

Query string: Query growth for O=C1/C(=C/c2ccc(F)cc2)Sc2c(Br)cccc21
Result string: 87.3

Query string: Given Cc1c(C(=O)N[C@@H](Cc2ccccc2)C(=O)C(=O)NCc2ccc(F)cc2)[nH]c2ccccc2c1=O , respond with its growth.
Result string: 105

Query string: Specify growth for Cc1cc(=O)oc2cc(OC(=O)CN3CCN(C)CC3)ccc12 and stop.
Result string: 101

Query string: Quote growth reported for CCCCCCN1C(=O)/C(=c2\sc3n(c2=O)C2C(NN=3)N(CC)C(=O)N2CC)c2ccccc21 (stereo not drawn) please.
Result string: -23

Query string: Answer with reported growth of Cn1cc(-c2ccc3cc(-c4ccc(CC(=O)Nc5cc(C(C)(C)C)nn5C)cc4)cnc3c2)cn1
Result string: 16.7

Query string: # return recorded growth for entry CC([C@H]1CCC2C3CCC4C[C@@H](NC=O)CC[C@]4(C)C3CC[C@@]21C)N(C)C (stereo partly drawn)
Result string: -38.8

Query string: Dear colleague, please send me the reported growth for COc1cc(-c2nc3sccn3c2-c2ccnc(NCCCNS(=O)(=O)c3ccc(F)cc3)n2)ccc1F when you can.
Result string: 57.1

Query string: Give growth for O=C1CCC/C=C\C[C@H]2C=CC(=O)/C2=C/C[C@H](CCc2cccc(C(F)(F)F)c2)O1
Result string: -22.9

Query string: Look up and report measured growth for this entry: Cc1cccc2c(=O)c3c(sc12)c(NCc1ccccc1)nc1ccccc13
Result string: 98.9

Query string: Fill in growth for record O=C(Cc1ccc2c(c1)OCCO2)Nc1nc2ccc(F)cc2s1
Result string: 106

Query string: Entry COc1cc(C(=O)N2N=C(c3ccc(S(C)(=O)=O)cc3)CC2c2ccco2)cc(OC)c1OC (stereo not drawn) needs its growth filled in; supply it.
Result string: 42.9

Query string: Given N#CC1=C(N)Oc2c(sc3c(Br)cccc23)C1c1ccc(Br)cc1 (stereo not drawn) , respond with its growth.
Result string: 0.128

Query string: // Input: c1ccc(Nc2cc(-c3cccnc3)[nH]n2)cc1 . Output its growth only.
Result string: 97.6

Query string: Dear colleague, please send me the reported growth for O=C1c2cccc3cccc(c23)C(=O)N1N1C(=O)c2cccc3c(NC4CCCCC4)ccc(c23)C1=O when you can.
Result string: 95.3

Query string: Identify measured growth associated with CCCSc1nc2ccc(C)cc2cc1/C=[N+](\[O-])c1ccccc1
Result string: 98.8

Query string: Return reported growth. Input molecule: COc1cccc2c(=O)c3c(sc12)c(N1CCNCC1)nc1ccccc13
Result string: 102
